Recorded EC50, HTRF long substrate assay values for a group of binders are listed next.
- Study System: BACE1 ECD (as used in the enzyme activity assay) (UniProt P56817 22-457, limits assumed)
- Sequence (P56817 22-457 limits assumed): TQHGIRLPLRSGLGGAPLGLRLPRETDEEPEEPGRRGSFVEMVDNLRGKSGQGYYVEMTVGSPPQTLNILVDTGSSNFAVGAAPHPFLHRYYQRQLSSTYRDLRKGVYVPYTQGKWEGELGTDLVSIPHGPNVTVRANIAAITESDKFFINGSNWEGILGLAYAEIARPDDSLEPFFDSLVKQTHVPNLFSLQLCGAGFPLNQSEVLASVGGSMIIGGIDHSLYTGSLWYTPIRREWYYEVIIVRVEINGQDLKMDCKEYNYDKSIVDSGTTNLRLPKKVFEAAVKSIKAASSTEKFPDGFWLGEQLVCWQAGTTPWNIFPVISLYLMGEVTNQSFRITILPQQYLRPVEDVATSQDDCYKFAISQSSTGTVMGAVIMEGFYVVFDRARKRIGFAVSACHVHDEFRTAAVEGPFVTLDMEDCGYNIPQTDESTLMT
- Test Method Notes: cell-based or functional assay
Write the number in nM without appending the unit.

5903 (antibody, V domains shown) VH: QLQLQESGPGLVKPSETLSLTCTVSGGSISSSSYYWGWIRQPPGKGLEWIGMIYYSGSTWYNPSLKSRVTISVDTSKNQFSLKLSSVTAADTAVYYCARVGHGISYFDLWGRGTLVTVSS VL: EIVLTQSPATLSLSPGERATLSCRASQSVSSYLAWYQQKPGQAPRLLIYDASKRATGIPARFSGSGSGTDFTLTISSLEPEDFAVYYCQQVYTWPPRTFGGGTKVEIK    1.38

Switching to the query record.
stdin: Hello, please tell me recorded EC50, HTRF long substrate assay for this one: 5888 (antibody, V domains shown) VH: QVQLVQSGAEVKKPGSSVKVSCKASGGTFWKYAISWVRQAPGQGLEWMGNIIPGFGTANYAQKFRGRVTITADESTSTAYMELSSLRSEDTAVYYCARSGGTKYGMLDVWGQGTMVTVSS VL: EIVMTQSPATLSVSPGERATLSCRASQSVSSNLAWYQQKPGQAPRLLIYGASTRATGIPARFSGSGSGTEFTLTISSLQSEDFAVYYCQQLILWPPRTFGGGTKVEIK
stdout: 2.5
